In this section we review reported koff values for a set of binders.
# subject_of_test: T1, monomeric recombinant human Notch3 extracellular domain (containing EGF like domains 1-11) fusion protein (human, UniProt Q9UM47 40-467)
# T1 construct: domain: EGF like domains 1-11; also called monomeric rhNotch3
# T1 sequence (looked up): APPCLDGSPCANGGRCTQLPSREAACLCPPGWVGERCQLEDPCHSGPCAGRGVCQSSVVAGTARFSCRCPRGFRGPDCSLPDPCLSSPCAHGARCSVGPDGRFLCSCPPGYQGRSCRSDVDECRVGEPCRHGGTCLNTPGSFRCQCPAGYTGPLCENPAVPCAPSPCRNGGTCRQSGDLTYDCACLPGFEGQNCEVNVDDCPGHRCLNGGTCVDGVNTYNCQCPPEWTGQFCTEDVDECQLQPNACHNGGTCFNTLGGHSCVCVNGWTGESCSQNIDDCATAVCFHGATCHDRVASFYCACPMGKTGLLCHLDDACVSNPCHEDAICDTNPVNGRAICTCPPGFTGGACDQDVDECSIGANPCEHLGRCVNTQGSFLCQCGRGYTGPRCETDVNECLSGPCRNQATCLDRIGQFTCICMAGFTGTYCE
# assay_notes: SPR BIAcore T100, antibody captured by anti-human IgG Fc, monomeric rhNotch3 analyte, 37 C
Could you give me the number in s⁻¹? Just the number is fine.

The following binders have reported results that may help.
- binder: "Hu4F11-76 (antibody, human IgG1, kappa, V domains shown, Humanized, human IgG1 kappa; Hv3-23 S31H T62S heavy + Kv2D-29 N28Y kappa) VH: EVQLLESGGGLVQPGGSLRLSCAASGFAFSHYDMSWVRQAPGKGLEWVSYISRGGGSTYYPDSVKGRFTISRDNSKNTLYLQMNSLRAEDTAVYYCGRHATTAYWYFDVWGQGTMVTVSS VL: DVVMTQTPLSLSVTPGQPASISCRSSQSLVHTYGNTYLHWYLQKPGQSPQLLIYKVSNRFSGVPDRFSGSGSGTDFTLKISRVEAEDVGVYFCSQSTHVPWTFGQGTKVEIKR"
  koff, s⁻¹: 0.0055
- binder: "Hu4F11-74 (antibody, human IgG1, kappa, V domains shown, Humanized, human IgG1 kappa; Hv3-23 A28T S31H T62S heavy + Kv2D-29 N28Y kappa) VH: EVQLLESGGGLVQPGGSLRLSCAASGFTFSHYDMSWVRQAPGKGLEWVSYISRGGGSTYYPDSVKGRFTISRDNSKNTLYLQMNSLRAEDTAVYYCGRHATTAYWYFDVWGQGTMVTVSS VL: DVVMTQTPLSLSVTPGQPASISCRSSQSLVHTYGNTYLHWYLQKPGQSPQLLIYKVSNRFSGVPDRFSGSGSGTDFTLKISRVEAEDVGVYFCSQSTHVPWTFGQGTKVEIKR"
  koff, s⁻¹: 0.0022

Using the record for Hu4F11-80 (antibody, human IgG1, kappa, V domains shown, Humanized, human IgG1 kappa; Hv3-23 S31H T62S heavy + Kv2D-29 N28Q kappa) VH: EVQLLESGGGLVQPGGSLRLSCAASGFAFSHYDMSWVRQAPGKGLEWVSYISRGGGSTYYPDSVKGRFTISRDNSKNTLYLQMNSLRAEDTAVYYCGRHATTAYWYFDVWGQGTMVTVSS VL: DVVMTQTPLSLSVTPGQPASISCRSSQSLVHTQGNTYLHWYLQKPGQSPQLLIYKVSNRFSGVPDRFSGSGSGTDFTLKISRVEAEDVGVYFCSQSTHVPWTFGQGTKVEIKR , report its koff.
0.0041
